For each record, write down the corresponding kdiss.
target: T1, Recombinant human Factor IX (rhFIX) (Homo sapiens, UniProt P00740, T194A); assay: BIAcore kinetics of Factor IX binding to mAb on protein A surface; settings: rhFIX 49 nM, 5 mM Ca2+, biosensor
T1 construct: purchased Genetics Institute
T1 sequence (P00740 47-461 T194A): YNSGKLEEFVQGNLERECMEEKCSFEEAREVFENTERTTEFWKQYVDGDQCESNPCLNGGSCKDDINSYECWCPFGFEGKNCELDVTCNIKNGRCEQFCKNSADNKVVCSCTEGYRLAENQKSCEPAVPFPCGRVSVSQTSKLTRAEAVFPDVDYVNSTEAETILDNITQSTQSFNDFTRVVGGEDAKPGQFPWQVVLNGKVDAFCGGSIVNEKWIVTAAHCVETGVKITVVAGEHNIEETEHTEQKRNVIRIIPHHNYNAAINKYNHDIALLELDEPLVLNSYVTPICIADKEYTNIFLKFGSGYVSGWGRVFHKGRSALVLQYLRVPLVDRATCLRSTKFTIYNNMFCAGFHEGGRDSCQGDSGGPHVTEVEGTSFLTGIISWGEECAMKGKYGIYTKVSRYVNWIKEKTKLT
Give the value, in units of s⁻¹, as a plain number.

Entry SB 257731: humanized anti-Factor IX mAb, heavy chain F9HZHC 1-1 (SEQ ID NO: 52), light chain F9HZLC 1-3 (SEQ ID NO: 78) (antibody, V domains shown) VH: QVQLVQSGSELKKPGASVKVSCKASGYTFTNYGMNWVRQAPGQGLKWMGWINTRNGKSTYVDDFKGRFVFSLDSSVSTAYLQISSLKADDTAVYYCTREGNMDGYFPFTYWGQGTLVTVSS VL: MGWSCIILFLVATATGVHSQIVLTQSPATLSLSPGERATLSCRASSSVNYMHWYQQRPGQAPKPWIYATSNLASGVPARFSGSGSGTDYTLTISSLEPEDFAVYYCQQWSINPRTFGGGTKVEIK ; kdiss = 0.00099

Entry SB 249416: humanized anti-Factor IX mAb, heavy chain F9HZHC 1-1 (SEQ ID NO: 52), light chain F9HZLC 1-2 (SEQ ID NO: 62) (antibody, V domains shown) VH: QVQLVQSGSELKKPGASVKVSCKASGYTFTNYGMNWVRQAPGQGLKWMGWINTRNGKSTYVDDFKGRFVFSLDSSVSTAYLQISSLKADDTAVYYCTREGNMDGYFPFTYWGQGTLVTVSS VL: EIVLTQSPATLSLSPGERATLSCRASSSVNYMHWYQQRPGQAPKPWIYATSNLASGVPARFSGSGSGTDYTLTISSLEPEDFAVYYCQQWSINPRTFGGGTKVEIKR ; kdiss = 0.00041

Source: patent US20020146411A1
